target: HLA-B*08:01; assay: IEDB peptide-MHC binding, purified MHC/competitive/radioactivity; filed as Kd, often an IC50 or EC50 that approximates it; bounds were set here for any values at or beyond the usual limits of such assays; settings: source organism: Dengue virus 2 16681-PDK53
Recorded Endpoint: Kd (µM)
Quick note: give the figure in µM, leave out the unit.

query: Return Kd measured with HLA-B*08:01 given this sequence: LLQMENKAWL
result: 0.28

====

target: HLA-B*83:01; assay: IEDB peptide-MHC binding, purified MHC/competitive/fluorescence; filed as Kd, often an IC50 or EC50 that approximates it; bounds were set here for any values at or beyond the usual limits of such assays; details: source organism: Cryptosporidium parvum Iowa II
Recorded Endpoint: Kd

query: Any idea what its Kd is? The sequence is VGYYTFHPK
result: ≥ 5 µM
